The origin of these recorded values is paper PMC12040169.

- assayExplanation: in vitro
- conditionSet: human, hela cells, % viability
// viability at 28.5 h, 10 µM lookup, one value per entry
Field: numeric (%). Do not append units.

[
  {
    "molecule": "CCc1nc2ccccc2c(NC(=O)CN2CCCCCC2)c1C [CBK261580G]",
    "unitSymbol": "%",
    "viability at 28.5 h, 10 µM": 90.3
  },
  {
    "molecule": "Cc1cccc2c3c([nH]c12)C1(CCN(CCCC#N)CC1)NCC3",
    "unitSymbol": "%",
    "viability at 28.5 h, 10 µM": 90.8
  },
  {
    "molecule": "CCc1nc2ccc(C(=O)NCCOc3ccc(OC)cc3)cn2c1N(C)CC",
    "unitSymbol": "%",
    "viability at 28.5 h, 10 µM": 91.9
  }
]

input: Read off the recorded viability at 28.5 h, 10 µM for COc1ccc([C@@]23CC[C@@H](NC(=O)Nc4cc(C)nc(C)c4)C[C@@H]2N(C)CC3)cc1OC
output: 90.9

input: Quick one: give measured viability at 28.5 h, 10 µM for CSCCC(=O)N1CCN(c2ncccn2)CC1
output: 90.3
